test: Plasmodium falciparum growth inhibition, primary screen, strain 3D7, DAPI fluorescence, 100 nL (AID 1184);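 note: parasites grown inside human red blood cells in medium with human serum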; conditions: P. falciparum 3D7 growth, 3 d, higher = more signal
Each entry below lists one item and its recorded z-score value.

Known results for compounds:
>  <compound>
COC(=O)[C@H]1N=C(c2ccc(OCCCO)cc2)O[C@H]1c1ccccc1N=[N+]=[N-]

>  <z-score>
-2.1

$$$$
>  <compound>
CN1C(=O)C2C=CC(C(O)COCc3ccccc3)N(Nc3ccc([N+](=O)[O-])cc3[N+](=O)[O-])C2C1=O (configuration not stated)

>  <z-score>
0.391

$$$$
>  <compound>
CCOC(=O)C[C@H]1[C@H](OC(=O)Cc2ccc3c(c2)OCO3)[C@@H](NC(=O)CC(C)C)c2cc(OCCCO)ccc2N1C(=O)c1ccc2ccccc2n1

>  <z-score>
-2.04

$$$$
>  <compound>
CCCNC(=O)[C@@]1(Sc2ccc(C)cc2)CC(=O)N(Cc2cc(C(F)(F)F)cc(C(F)(F)F)c2)[C@@H]1c1ccc(CO)cc1

>  <z-score>
-1.1

$$$$
>  <compound>
Cc1ccc(S[C@]2(C(=O)NCc3ccccc3)CC(=O)N(Cc3ccccc3C(F)(F)F)[C@@H]2c2ccc(CO)cc2I)cc1

>  <z-score>
0.0951

$$$$

The record that follows has no z-score shown yet.
Challenge: For the compound `Cc1cccc([C@H]2C[C@H]3C(Br)=C[C@@]2(CO)C(=O)[C@]32CO2)c1` , what z-score is on record?
Response given: 1.54

* * *

target: Dihydroorotate dehydrogenase (quinone), mitochondrial (Plasmodium falciparum (isolate 3D7)) (UniProt Q08210); experiment: PfDHODH enzyme inhibitors, primary screen, biochemical, C-terminal His tag, absorbance 600 nm (AID 1175); details: DCIP absorbance 600 nm, higher = more signal, called active from +8 up or from −8 down;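 note: recombinant parasite enzyme with a five histidine tag at its C terminus; test concentration not given here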
Sequence (Q08210 whole entry, looked up): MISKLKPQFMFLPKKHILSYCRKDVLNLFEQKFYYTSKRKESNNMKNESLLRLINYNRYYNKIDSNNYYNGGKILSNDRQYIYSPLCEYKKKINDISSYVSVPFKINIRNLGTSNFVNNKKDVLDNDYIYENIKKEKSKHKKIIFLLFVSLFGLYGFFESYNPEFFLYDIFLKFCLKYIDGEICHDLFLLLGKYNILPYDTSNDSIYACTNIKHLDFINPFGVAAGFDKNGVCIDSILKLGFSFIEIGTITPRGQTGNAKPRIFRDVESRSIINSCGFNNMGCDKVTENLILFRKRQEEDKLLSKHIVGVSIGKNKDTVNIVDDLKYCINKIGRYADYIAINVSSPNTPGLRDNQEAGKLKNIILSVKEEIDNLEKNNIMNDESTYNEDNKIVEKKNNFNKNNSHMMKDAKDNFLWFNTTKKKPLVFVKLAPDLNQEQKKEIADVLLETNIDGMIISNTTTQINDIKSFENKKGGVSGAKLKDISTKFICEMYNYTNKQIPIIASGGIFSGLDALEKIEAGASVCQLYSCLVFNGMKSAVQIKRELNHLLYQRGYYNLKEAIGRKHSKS
Returns the class for an entry based on its composite z-score. Class ranges: lo = under -2, mid = from -2 up to -0.1, hi = -0.1 and over

>  <compound>
CC(C)C[C@H]1NC(=O)CNC(=O)[C@@]23C(=O)N[C@@H](Cc4ccccc4)C2[C@H](C)[C@@]2(C)O[C@H]2C3/C=C/C/C=C\CNC1=O (stereo not given in full)

>  <label>
mid

$$$$

Challenge: Would you mind sorting C=C(C)C1CN([C@H](CO)c2ccccc2)C(=O)/C1=C\c1ccccc1 (stereo not given in full) into the appropriate category?
Response given: lo

Challenge: Would you mind sorting CN1C2C=C(c3ccc(CO)cc3)C(C3C(=O)N(C(N)=O)C(=O)C32)C1C1CC1 (stereo not given) into the appropriate category?
Response given: hi

* * *

Each entry below lists one item and its recorded composite z-score value.
biological target: Fibroblast growth factor 2 (Homo sapiens); assay: FGF2 binders on small-molecule microarrays, primary screen, biochemical, small-molecule microarray, 635/667 nm fluorescence (AID 1133); conditions: small-molecule microarray binding, FGF2, fluorescence 635/667; higher = more signal

Known results for molecules:
>  <smiles.input>
C=C(C(=O)CC[C@@H](OC(=O)c1ccccc1-c1ccccc1C(=O)O)c1ccc(CO)o1)C(C)C

>  <composite z-score>
1.76

$$$$
>  <smiles.input>
COc1c(C)cc(-c2cc3c(c(CCc4ccccc4)n2)[Si](C(C)C)(C(C)C)O[C@H]3c2ccccc2)cc1C

>  <composite z-score>
-0.278

$$$$

The record that follows has no composite z-score shown yet.
Challenge: For the molecule `COc1ccc([Si](C)(C)[C@@H]2[C@@H](CC(=O)N(CCO)Cc3ccccc3)O[C@]3(C(=O)N(Cc4cccc(I)c4)c4ccccc43)[C@H]2C)cc1` , what composite z-score is on record?
Response given: 1.68

* * *

molecular target: Alpha-bungarotoxin (Bungarus multicinctus) (UniProt P60615); assay: alpha-bungarotoxin binders on microarray, profiling panel, artefact control for SMM control protein annotation, biochemical, small-molecule microarray, Alexa647 label, 635/667 nm fluorescence (AID 1117); settings: alpha-BTX-A647 binding fluorescence, higher = more signal
Sequence (P60615 whole entry, looked up): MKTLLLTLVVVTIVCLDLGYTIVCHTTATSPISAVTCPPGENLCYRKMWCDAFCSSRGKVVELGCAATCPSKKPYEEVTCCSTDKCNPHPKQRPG
Each entry below lists one item and its recorded composite z-score value.
Give the figure by itself; no unit, no explanation.

>  <molecule>
COc1ccc(NN2C(C(O)c3ccccc3)C=CC3C(=O)N(C4CCCCC4)C(=O)C32)cc1 (stereo not given)

>  <composite z-score>
1.13

$$$$
>  <molecule>
C=C(COC)C(=O)CC[C@H](OC(C)=O)c1ccc(CO)o1

>  <composite z-score>
0.706

$$$$
>  <molecule>
C=C(CCCC)/C(=C/C[C@@H](OC(C)=O)c1cccc(OCCO)c1)c1cc(C(=O)OC)ccc1OC

>  <composite z-score>
0.621

$$$$
>  <molecule>
CN1C(=O)C2C=CC(C(O)c3ccc([N+](=O)[O-])cc3)N(Nc3ccccc3)C2C1=O (stereo not given)

>  <composite z-score>
1.44

$$$$
>  <molecule>
CCCCCCc1nc(Cc2cc(OC)c(OC)c(OC)c2)c(C)c2c1[Si](C(C)C)(C(C)C)OC2

>  <composite z-score>
-0.101

$$$$
>  <molecule>
COc1cc2c(cc1OC)CN(C(=O)[C@@H]1[C@H]3C(=O)O[C@H](c4ccccc4)[C@H](c4ccccc4)N3[C@H](c3ccc(O)cc3)[C@@]13C(=O)Nc1ccc(C#CC4=CCCCC4)cc13)CC2

>  <composite z-score>
0.891

$$$$

Challenge: For the molecule `COC(=O)[C@@]1(Cc2ccc(OC)cc2)[C@@H]2[C@@H](CC(=O)[C@H]2CC(=O)C(=O)N(C)C)CN1C(=O)c1ccccc1` , what composite z-score is on record?
Response given: 1.67

Challenge: For the molecule COc1cc2c(cc1O)C(C)N(Cc1sc3ccccc3c1Cl)CC2 (stereo not given) , what composite z-score is on record?
Response given: 0.201

Challenge: For the molecule `COC(=O)[C@@]1(Cc2ccc(F)cc2)[C@H]2c3cc(C(=O)N4CCCC4)n(Cc4ccc(C(F)(F)F)nc4)c3C[C@H]2CN1C(=O)c1ccccc1` , what composite z-score is on record?
Response given: 0.615

Challenge: For the molecule `COc1ccc(CCNC(=O)[C@@H]2c3ccccc3C(=O)N(Cc3cc(F)cc(C(F)(F)F)c3)[C@H]2c2ccc(CO)cc2)cc1` , what composite z-score is on record?
Response given: 0.715

Challenge: For the molecule `C=CC[C@H](O)c1ccc(O)c2ccccc12` , what composite z-score is on record?
Response given: 1.23

Challenge: For the molecule `COc1cccc(C)c1NC(=O)O[C@H]1[C@H](OC(=O)Nc2ccccc2)[C@@H](OC(=O)Nc2ccccc2)[C@@H](OC)O[C@@H]1CO` , what composite z-score is on record?
Response given: 1.31

Challenge: For the molecule `COC(=O)[C@@]1(Cc2ccccc2)[C@H]2c3cc(C(=O)N(C)C)n(CCF)c3C[C@H]2CN1C(=O)c1ccccc1` , what composite z-score is on record?
Response given: 1.43

Challenge: For the molecule `COCCOC(=O)N1C(=O)[C@@]2(c3cc(C#CCC(C(=O)OC)C(=O)OC)ccc31)[C@H](c1ccc(O)cc1)N1[C@H](c3ccccc3)[C@H](c3ccccc3)OC(=O)[C@H]1[C@@H]2C(=O)N1CCc2cc(OC)c(OC)cc2C1` , what composite z-score is on record?
Response given: 1.36

Challenge: For the molecule CC(C)c1ccc(NN2C(C(O)c3ccccc3)C=CC3C(=O)N(c4ccccc4)C(=O)C32)cc1 (stereo not given) , what composite z-score is on record?
Response given: 1.67

Challenge: For the molecule `CO[C@H]1O[C@H](CO)[C@@H](OC(=O)Nc2cccc(F)c2)[C@H](OC(=O)Nc2ccc3c(c2)OCO3)[C@@H]1OC(=O)Nc1ccc2c(c1)OCO2` , what composite z-score is on record?
Response given: 1.02

* * *

Each entry below lists one item and its recorded composite z-score value.
experiment: binders from COS7 lysate, DM2A8 probe, primary screen, torsin A project, cell lysate, small-molecule microarray, fluorescence 635/667 (AID 1065); conditions: higher = more signal, COS7 lysate expressing mutant human TOR1A
Give the figure by itself; no unit, no explanation.

Challenge: For the molecule `COC(=O)[C@]1(Cc2ccccc2N=[N+]=[N-])N=C(c2ccc(OCCCO)cc2)O[C@@H]1c1ccccc1CN=[N+]=[N-]` , what composite z-score is on record?
Response given: 1.08

* * *

molecular target: Follistatin-related protein 3 (Homo sapiens); assay: FSTL3 binders on small-molecule microarrays, primary screen, biochemical, small-molecule microarray, 635 nm fluorescence (AID 1105); conditions: FSTL3 binding, higher = more signal;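 note: score merges emission near 667 nm and signal to noise per printed spot across three slides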
value.kind: composite z-score
Give the figure by itself; no unit, no explanation.

>  <smiles.input>
COC(=O)[C@@]1(Cc2ccc(F)cc2)[C@H]2c3cc(C(=O)N4CCCC4)n(C[C@H](O)CO)c3C[C@H]2CN1C(=O)c1ccccc1

>  <study.target>
Follistatin-related protein 3 (Homo sapiens)

>  <composite z-score>
0.111

$$$$
>  <smiles.input>
COC(=O)C(CC#Cc1ccc2c(c1)[C@]1(C(=O)N2)[C@H](c2ccccc2OCCO)N2[C@H](c3ccccc3)[C@H](c3ccccc3)OC(=O)[C@H]2[C@@H]1C(=O)N1CCN(c2ncccn2)CC1)C(=O)OC

>  <study.target>
Follistatin-related protein 3 (Homo sapiens)

>  <composite z-score>
1.27

$$$$

The record that follows has no composite z-score shown yet.
Challenge: For the compound `O=C1OC[C@@H](c2ccccc2)n2cc(/C=C/c3ccccc3)cc21` , what composite z-score is on record?
Response given: -0.513
